# Tested on: normal human melanocyte
# ASSAY_PROCEDURE: UVB-induced cell activation inhibition test using normal human melanocyte
# Assay type: cell-based
# CONDITIONS: formazan (MTT) production ratio, UVB-irradiated DMSO negative control = 100%; UVB 5 mJ/cm^2; 100 mM in DMSO diluted 1,000 times; conditioned medium of normal human keratinocyte; mean of 3 samples
# Protocol: The inhibitory effect of the compounds on the activation of melanocyte by activating factor produced and released from normal human keratinocyte by the ultraviolet B (UVB) was evaluated by using the index of the cell proliferation of normal human melanocyte. […] The formazan amount was measured by the absorbances at 570 nm and 690 nm of cell lysate lysed with 2-propanol using a microplate reader (Benchmark Plus, Bio-Rad) by subtracting the absorbance at 690 nm from the absorbance at 570 nm. […]
Documented Melanocyte proliferation ratio Average (%) across a set of compounds
ENDPOINT: Melanocyte proliferation ratio Average (%)

>>> reported_measurement("NC[C@H]1CC[C@H](C(=O)O)CC1 [Tranexamic acid, reference compound]")
80.9
>>> reported_measurement("Cc1ccc(C(=O)N[C@@H](CS(=O)(=O)O)C(=O)O)cc1 [L-Isomer of Compound 3, N-(p-toluoyl)cysteic acid]")
58.4
>>> reported_measurement("Cc1ccc(C(=O)NC(CCS(=O)(=O)O)C(=O)O)cc1 (racemic) [Compound 6, N-(p-toluoyl)homocysteic acid]")
71.3
>>> reported_measurement("COc1ccc(C(=O)N[C@@H](CS(=O)(=O)O)C(=O)O)cc1 [L-Isomer of Compound 4, N-(p-methoxybenzoyl)cysteic acid]")
65.6
>>> reported_measurement("Cc1ccccc1C(=O)N[C@@H](CS(=O)(=O)O)C(=O)O [L-Isomer of Compound 1, N-(o-Toluoyl)-L-cysteic acid]")
73.7
>>> reported_measurement("Cc1cccc(C(=O)N[C@@H](CS(=O)(=O)O)C(=O)O)c1 [L-Isomer of Compound 2, N-(m-toluoyl)cysteic acid]")
77.0
>>> reported_measurement("O=C(N[C@@H](CS(=O)(=O)O)C(=O)O)c1ccc(-c2ccccc2)cc1 [L-Isomer of Compound 5, N-(4-phenylbenzoyl)cysteic acid]")
79.0
